Reference source: ChEMBL document CHEMBL1129538

# method_notes: Maximum concentration present in the rabbit plasma following peroral administration of 10 mg/kg
# Type: ADME, organism-based, Oryctolagus cuniculus
# Parameters: dose 10 mg/kg, route oral
# protocol_conditions: po
assay_endpoint: Cmax (nM)

molecule | unit | Cmax
Cc1cc(C)n(CCCCC[S+]([O-])c2nc(-c3ccccc3)c(-c3ccccc3)[nH]2)n1 (configuration not stated) | nM | 2100
c1ccc(-c2nc(C3OCCCO3)[nH]c2-c2ccccc2)cc1 | nM | 500

I: c1ccc(-c2nc(C3OCC4(CCCCC4)CO3)[nH]c2-c2ccccc2)cc1
II: OCC1(CO)COC(c2nc(-c3ccccc3)c(-c3ccccc3)[nH]2)OC1
III: CCC1(CC)COC(c2nc(-c3ccccc3)c(-c3ccccc3)[nH]2)OC1
IV: CC1(C)COC(c2nc(-c3ccccc3)c(-c3ccccc3)[nH]2)OC1
V: CC1(CO)COC(c2nc(-c3ccccc3)c(-c3ccccc3)[nH]2)OC1 (stereo in doubt; 13d)
Parameters: sort_field (Cmax), sort_dir (desc). // ordering of labels required in reply
V, II, IV, III, I
(V: 8700 nM, II: 5460 nM, IV: 300 nM, III: 150 nM, I: 40 nM)
